Target: Nav 1.7 (Homo sapiens (Human), UniProt Q15858)
Sequence (Q15858 whole entry): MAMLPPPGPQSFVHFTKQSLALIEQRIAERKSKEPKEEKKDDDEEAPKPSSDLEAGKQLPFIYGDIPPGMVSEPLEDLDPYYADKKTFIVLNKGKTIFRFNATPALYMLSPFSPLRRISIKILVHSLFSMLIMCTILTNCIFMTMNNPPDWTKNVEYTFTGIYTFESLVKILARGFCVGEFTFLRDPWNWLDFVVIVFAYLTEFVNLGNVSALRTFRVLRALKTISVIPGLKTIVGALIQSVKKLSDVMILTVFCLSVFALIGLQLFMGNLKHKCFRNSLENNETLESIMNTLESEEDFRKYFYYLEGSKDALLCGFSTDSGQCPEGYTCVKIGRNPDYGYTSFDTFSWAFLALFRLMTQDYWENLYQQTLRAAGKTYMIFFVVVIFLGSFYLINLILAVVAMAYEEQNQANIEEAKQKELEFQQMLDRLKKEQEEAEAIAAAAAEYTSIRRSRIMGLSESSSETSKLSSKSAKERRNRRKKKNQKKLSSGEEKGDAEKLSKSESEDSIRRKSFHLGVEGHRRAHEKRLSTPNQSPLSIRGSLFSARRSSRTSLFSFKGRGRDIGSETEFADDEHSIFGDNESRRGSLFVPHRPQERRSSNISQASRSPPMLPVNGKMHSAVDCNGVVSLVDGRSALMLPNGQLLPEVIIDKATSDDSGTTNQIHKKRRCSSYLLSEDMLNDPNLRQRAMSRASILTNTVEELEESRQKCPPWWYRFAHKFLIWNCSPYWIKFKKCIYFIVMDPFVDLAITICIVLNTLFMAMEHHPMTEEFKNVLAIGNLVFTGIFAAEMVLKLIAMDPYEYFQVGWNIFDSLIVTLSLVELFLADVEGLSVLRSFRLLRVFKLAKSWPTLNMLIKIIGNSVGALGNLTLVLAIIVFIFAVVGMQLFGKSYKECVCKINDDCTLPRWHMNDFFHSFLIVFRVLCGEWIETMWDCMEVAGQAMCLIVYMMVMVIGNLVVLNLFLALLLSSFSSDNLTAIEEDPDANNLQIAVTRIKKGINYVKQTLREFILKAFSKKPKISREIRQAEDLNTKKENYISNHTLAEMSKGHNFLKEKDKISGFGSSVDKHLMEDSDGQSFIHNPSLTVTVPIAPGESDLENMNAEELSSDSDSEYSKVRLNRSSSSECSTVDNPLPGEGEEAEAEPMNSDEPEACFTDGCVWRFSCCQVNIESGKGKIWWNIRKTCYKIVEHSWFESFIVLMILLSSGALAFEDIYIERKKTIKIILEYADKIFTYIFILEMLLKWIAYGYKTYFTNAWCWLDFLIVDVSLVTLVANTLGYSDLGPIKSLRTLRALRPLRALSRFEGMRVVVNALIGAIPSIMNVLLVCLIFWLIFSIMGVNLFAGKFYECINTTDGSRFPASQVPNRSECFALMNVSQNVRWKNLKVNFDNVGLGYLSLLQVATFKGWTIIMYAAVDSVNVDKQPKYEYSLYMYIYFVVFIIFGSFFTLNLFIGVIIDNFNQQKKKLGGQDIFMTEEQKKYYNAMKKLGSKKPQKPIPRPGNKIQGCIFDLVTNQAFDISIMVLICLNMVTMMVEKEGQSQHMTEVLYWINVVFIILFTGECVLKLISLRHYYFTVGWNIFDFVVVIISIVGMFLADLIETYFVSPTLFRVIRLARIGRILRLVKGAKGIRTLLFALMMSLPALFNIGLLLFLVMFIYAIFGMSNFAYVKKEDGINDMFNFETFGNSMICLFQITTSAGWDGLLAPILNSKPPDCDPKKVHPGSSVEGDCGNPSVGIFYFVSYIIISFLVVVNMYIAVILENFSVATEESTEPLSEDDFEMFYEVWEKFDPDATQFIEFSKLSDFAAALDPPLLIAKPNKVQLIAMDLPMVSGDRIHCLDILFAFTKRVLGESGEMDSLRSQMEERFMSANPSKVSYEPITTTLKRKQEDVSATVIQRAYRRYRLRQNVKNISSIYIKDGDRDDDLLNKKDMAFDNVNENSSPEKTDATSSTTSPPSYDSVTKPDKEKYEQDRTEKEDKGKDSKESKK
Assay: Nav 1.7 IWQ in vitro assay (IonWorks Quattro population patch-clamp)
Format: cell-based
Conditions: 293 cells stably transfected with Nav 1.7; second part of table; read-out: Nav1.7 IWQ IC50 IP
property: IC50 (nM)

Sample records with IC50:
INSERT INTO measurements (molecule, value_units, measured) VALUES
  ('NC(=O)c1cc(C(F)(F)F)ccc1-c1nccc2cc(S(=O)(=O)Nc3nccs3)ccc12', 'nM', 110),
  ('COc1cc(F)c(F)cc1-c1nccc2cc(S(=O)(=O)Nc3ccncn3)ccc12', 'nM', 60),
  ('COc1cc(Cl)ccc1-c1nncc2cc(S(=O)(=O)Nc3nccs3)ccc12', 'nM', 30),
  ('COc1cc(F)ccc1-c1nncc2cc(S(=O)(=O)Nc3ncc(F)s3)ccc12', 'nM', 70),
  ('O=S(=O)(Nc1ccncn1)c1ccc2c(Oc3ccc(Cl)c(Cl)c3)nccc2c1', 'nM', 4980);

(I) COc1cc(C(F)(F)F)ccc1-c1ncnc2cc(S(=O)(=O)Nc3nccs3)ccc12
(II) Cc1cc(Cl)ccc1-c1nccc2cc(S(=O)(=O)Nc3nccs3)ccc12 [Example 209, 2,2,2-TRIFLUOROACETATE]
(III) COc1cc(C#N)ccc1-c1ncnc2cc(S(=O)(=O)Nc3nccs3)ccc12
Number of molecules to sort: 3. Sort criterion: IC50, ascending. Answer format: the labels, ordered as requested.
I, III, II

(1) COc1ccccc1-c1ncc(F)c2cc(S(=O)(=O)Nc3nccs3)ccc12
(2) COc1cc(C(F)(F)F)ccc1-c1cccc2cc(S(=O)(=O)Nc3ncc(F)s3)ccc12
Lab log: flag the item ( 1 or 2 ) with the smaller IC50 figure. Choose, then provide that item's label.
1
(1: 10 nM, 2: 330 nM)
